# Experiment summary: Half life in human
# Format: ADME
Measured parameter: half-life
Please report the result as a number followed by the unit.

Requested field: half-life. Item: Cc1cn([C@H]2O[C@@H](CO)[C@H](O)[C@H]2F)c(=O)[nH]c1=O [CLEVUDINE]
44 h

* * *

# Tgt: Non-structural protein 4b (Hepacivirus hominis, UniProt F5B4I0)
# Sequence (F5B4I0 whole entry): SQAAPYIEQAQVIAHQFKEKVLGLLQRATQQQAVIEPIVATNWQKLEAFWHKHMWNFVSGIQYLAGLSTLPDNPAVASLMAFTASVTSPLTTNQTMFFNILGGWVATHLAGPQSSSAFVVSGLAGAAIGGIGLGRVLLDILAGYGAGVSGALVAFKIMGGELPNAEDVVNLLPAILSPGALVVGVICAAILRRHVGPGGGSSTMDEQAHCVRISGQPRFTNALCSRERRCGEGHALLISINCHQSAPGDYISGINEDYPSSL
# Experiment summary: Inhibition of Hepatitis C virus genotype 2b NS4B
Measured parameter: IC50 (nM)
Give the number; nM is assumed, so skip it.

Requested field: IC50. Item: CC(C)(C)OC(=O)N[C@H]1CCCCC/C=C\[C@@H]2C[C@@]2(C(=O)NS(=O)(=O)C2CC2)NC(=O)[C@@H]2C[C@@H](OC(=O)N3Cc4cccc(F)c4C3)CN2C1=O [DANOPREVIR SODIUM]
1.6

* * *

# Tgt: Non-structural protein 4b (Hepacivirus hominis)
# Experiment summary: Inhibition of Hepatitis C virus genotype 1b NS4B
Measured parameter: IC50
Please report the result as a number followed by the unit.

Requested field: IC50. Item: CC(C)(C)OC(=O)N[C@H]1CCCCC/C=C\[C@@H]2C[C@@]2(C(=O)NS(=O)(=O)C2CC2)NC(=O)[C@@H]2C[C@@H](OC(=O)N3Cc4cccc(F)c4C3)CN2C1=O [DANOPREVIR SODIUM]
200 pM

* * *

# Tgt: DNA polymerase alpha catalytic subunit (Homo sapiens, UniProt P09884)
# Sequence (P09884 whole entry): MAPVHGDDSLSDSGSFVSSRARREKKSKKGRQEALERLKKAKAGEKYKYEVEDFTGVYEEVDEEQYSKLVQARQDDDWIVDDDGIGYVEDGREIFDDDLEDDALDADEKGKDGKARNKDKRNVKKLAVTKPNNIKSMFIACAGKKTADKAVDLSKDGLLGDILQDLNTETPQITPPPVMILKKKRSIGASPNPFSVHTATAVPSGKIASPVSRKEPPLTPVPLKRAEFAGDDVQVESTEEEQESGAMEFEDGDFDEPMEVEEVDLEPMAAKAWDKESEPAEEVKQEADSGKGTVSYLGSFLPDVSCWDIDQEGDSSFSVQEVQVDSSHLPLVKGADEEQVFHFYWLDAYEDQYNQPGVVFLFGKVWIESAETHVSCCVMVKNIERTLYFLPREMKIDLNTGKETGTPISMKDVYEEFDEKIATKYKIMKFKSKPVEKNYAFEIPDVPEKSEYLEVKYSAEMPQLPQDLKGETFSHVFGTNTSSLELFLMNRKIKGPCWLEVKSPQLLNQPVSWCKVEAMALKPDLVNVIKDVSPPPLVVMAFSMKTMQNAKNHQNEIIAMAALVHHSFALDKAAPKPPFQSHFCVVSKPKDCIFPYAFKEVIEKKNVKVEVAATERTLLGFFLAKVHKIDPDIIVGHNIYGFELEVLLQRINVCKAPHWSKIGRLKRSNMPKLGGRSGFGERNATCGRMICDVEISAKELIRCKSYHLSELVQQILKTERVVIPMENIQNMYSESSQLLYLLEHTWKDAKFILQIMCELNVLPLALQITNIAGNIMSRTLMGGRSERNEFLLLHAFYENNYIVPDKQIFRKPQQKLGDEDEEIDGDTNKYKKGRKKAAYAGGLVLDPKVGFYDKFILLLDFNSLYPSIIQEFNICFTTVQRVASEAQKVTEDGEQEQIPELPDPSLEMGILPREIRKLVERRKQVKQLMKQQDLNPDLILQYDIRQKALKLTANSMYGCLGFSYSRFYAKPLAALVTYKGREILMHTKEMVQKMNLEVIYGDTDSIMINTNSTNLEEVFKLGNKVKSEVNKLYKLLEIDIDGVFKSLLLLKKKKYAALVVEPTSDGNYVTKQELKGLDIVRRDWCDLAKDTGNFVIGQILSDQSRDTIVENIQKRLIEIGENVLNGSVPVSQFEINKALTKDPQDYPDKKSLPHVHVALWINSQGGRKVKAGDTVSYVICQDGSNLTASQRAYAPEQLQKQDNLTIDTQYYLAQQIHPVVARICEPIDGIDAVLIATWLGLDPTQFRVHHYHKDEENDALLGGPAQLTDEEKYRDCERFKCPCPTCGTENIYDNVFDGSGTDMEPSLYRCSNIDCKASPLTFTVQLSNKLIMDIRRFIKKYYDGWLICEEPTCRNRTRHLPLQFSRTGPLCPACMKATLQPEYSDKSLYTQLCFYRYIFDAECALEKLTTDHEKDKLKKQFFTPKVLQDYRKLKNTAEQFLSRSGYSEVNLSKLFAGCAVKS
# Experiment summary: Binding affinity to DNA polymerase alpha (unknown origin) assessed as inhibition constant
Measured parameter: pKi
Scale: negative log10 of molar concentration, which is what pKi denotes.

Requested field: pKi. Item: CC(C)(C)C(=O)OCOP(=O)(COCCn1cnc2c(N)ncnc21)OCOC(=O)C(C)(C)C
5.93
